Entries and their measured GI50 follow.
System: UACC-257
Test: NCI tumour cell line growth inhibition, 48 h
Activity calls are given as the source filed them. Rule as the data show it: active = GI50 up to about 1.1 µM and inactive = higher.
parameter measured: GI50

INSERT INTO results (molecule, study_target, parameter_measured, result) VALUES
  ('COC(=O)C1=C(C)N(NC(=O)Nc2ccccc2)C2(N)N(NC(=O)Nc3ccccc3)C(C)=C(C(=O)OC)C12C(=O)OC (configuration not stated)', 'UACC-257', 'GI50', '16.4 µM (inactive)'),
  ('Cc1cc(O)nc(NNC(C#N)c2ccc(O)cc2)n1 (configuration not stated)', 'UACC-257', 'GI50', '> 100 µM (inactive)'),
  ('Cc1cccc(NC(=S)N/N=C2\C(=O)Nc3ccccc32)c1', 'UACC-257', 'GI50', '> 100 µM (inactive)'),
  ('CCC1(O)CN(CCOC)[C@H]2C[C@@H]1C(=O)c1[nH]c3ccccc3c12 (some centres not stated)', 'UACC-257', 'GI50', '> 100 µM (inactive)'),
  ('O=C(CC/C(C/C(=N/O)c1ccc(F)cc1)=N/O)N(Cc1ccccc1)Cc1ccccc1', 'UACC-257', 'GI50', '> 100 µM (inactive)'),
  ('Cc1ccc2c(C)c3ccc4ccccc4c3c[n+]2c1.[O-][Cl+3]([O-])([O-])[O-]', 'UACC-257', 'GI50', '12.4 µM (inactive)'),
  ('COc1cc(O)c2c(c1)C(=O)C1=C(C2=O)C(O)C[C@@](C)(O)C1 (some centres not stated)', 'UACC-257', 'GI50', '0.335 µM (active)'),
  ('CSc1c(C#N)c(N)n(-c2ccc(C)cc2)c(=O)c1C#N', 'UACC-257', 'GI50', '> 100 µM (inactive)'),
  ('CC(ON1[C@](C)(c2ccccc2)CC[C@@]1(C)c1ccccc1)c1ccccc1 (some centres not stated)', 'UACC-257', 'GI50', '28.3 µM (inactive)'),
  ('COc1cc(/C=C\c2cccnc2)cc(OC)c1OC', 'UACC-257', 'GI50', '68.4 µM (inactive)'),
  ('O=C1NC(N2CCCC(CO)C2)=N/C1=C\c1ccc(O)cc1 (configuration not stated)', 'UACC-257', 'GI50', '> 100 µM (inactive)'),
  ('NC(=O)c1ccccc1NC(=O)C(=O)Nc1n[nH]c(N)n1', 'UACC-257', 'GI50', '> 100 µM (inactive)'),
  ('CCOC(=N)n1c(=O)n(C2=NCCN2)c2ccccc21', 'UACC-257', 'GI50', '> 100 µM (inactive)'),
  ('CC(C)N(C(=O)C12C3(C(=O)OC(C)(C)C)C4C5(C#N)C3C1(C(=O)OC(C)(C)C)C5C42C(=O)OC(C)(C)C)C(C)C (configuration not stated)', 'UACC-257', 'GI50', '28.9 µM (inactive)'),
  ('Cc1c(C(=O)/C=C/c2c(Cl)cccc2Cl)c(=O)n(-c2ccccc2)n1C', 'UACC-257', 'GI50', '20.9 µM (inactive)'),
  ('CN(C)c1ccc(/C=C/c2ccnc3ccc4ccccc4c23)cc1', 'UACC-257', 'GI50', '89.5 µM (inactive)'),
  ('O=c1[nH]nc2ccccc2c1Cc1ccccc1', 'UACC-257', 'GI50', '> 100 µM (inactive)'),
  ('O=C(c1ccccc1)c1c(-c2ccccc2)[nH]n(-c2ccc([N+](=O)[O-])cc2)c(=O)c1=O', 'UACC-257', 'GI50', '41.5 µM (inactive)'),
  ('C=C(C)OCOCCOC', 'UACC-257', 'GI50', '> 100 µM (inactive)'),
  ('Cc1nc2ccccc2cc1C[N+]12CN3CN(CN(C3)C1)C2', 'UACC-257', 'GI50', '18.4 µM (inactive)'),
  ('CCOC(=O)c1nc2ccc(Cl)cc2c2c1CCO2', 'UACC-257', 'GI50', '> 100 µM (inactive)'),
  ('NCC(O)CN.Oc1c(Cl)c(Cl)c(Cl)c(Cl)c1Cl', 'UACC-257', 'GI50', '21.2 µM (inactive)');

###

Entries and their measured GI50 follow.
Tested on: SNB-19
Assay: NCI tumour cell line growth inhibition, 48 h
The source made the active and inactive calls. Cut-off read from the data, not from the text of the source: active = GI50 up to about 1.1 µM and inactive = higher.
parameter measured: GI50

INSERT INTO measurements (compound, result) VALUES
  ('CCOc1ccc2c(c1)[n+]([O-])c(-c1nc3ccccc3s1)c(N)[n+]2[O-]', '48.1 µM (inactive)'),
  ('CC(C)C1=CC2=C(C(=O)C1=O)C13CCCC(C)(C)C1CC2OC3=O (stereo unspecified)', '42.9 µM (inactive)'),
  ('O=c1c(Cc2ccccc2Cc2c(O)oc3ccccc3c2=O)c(O)oc2ccccc12', '> 100 µM (inactive)'),
  ('O=C(O)c1cc(/N=N/c2ccc([N+](=O)[O-])cc2)ccc1O', '30.9 µM (inactive)'),
  ('C=C(Br)CN(CC(=C)Br)C(C)=O', '78.9 µM (inactive)'),
  ('O=C(OCC12CC3CC(CC(C3)C1)C2)c1ccc(NCc2cc(O)ccc2O)cc1', '4.33 µM (inactive)');

###

Tested on: ACHN
Assay: NCI tumour cell line growth inhibition, 48 h
The source made the active and inactive calls. Cut-off read from the data, not from the text of the source: active = GI50 up to about 1.1 µM and inactive = higher.
parameter measured: GI50

INSERT INTO results (compound, result) VALUES
  ('Cc1ccccc1-c1c(N)nc(NC#N)nc1C(=O)Nc1ccccc1', '> 100 µM (inactive)'),
  ('COC(=O)C1[C@@H](C(=O)OC)C12C=Cc1ccccc1C=C2 (stereo not given in full)', '> 100 µM (inactive)'),
  ('CC(C)=CCc1c(O)c(CC=C(C)C)c2oc(-c3ccc(O)cc3O)c(CC=C(C)C)c(=O)c2c1O', '7.62 µM (inactive)'),
  ('Cc1cc(C)c2c(=O)n(CN3CCN(c4ccccc4)CC3)sc2n1', '20.1 µM (inactive)'),
  ('Nc1nc(Cl)cc(NCC2(CO)CCC(OCc3ccccc3)C2)n1 (stereo not given)', '5.69 µM (inactive)'),
  ('NCCCNCCS', '> 100 µM (inactive)'),
  ('COc1cc(NCc2ccc3oc(=O)c(-c4ccccc4)nc3c2)cc(OC)c1OC', '> 10 µM (inactive)'),
  ('CC(=O)Nc1ccc(S(=O)(=O)N=S(C)C)cc1', '> 100 µM (inactive)'),
  ('CC(CO)(CO)N1C(=O)C2C3C=CC(C3)C2C1=O (stereo not given)', '> 100 µM (inactive)'),
  ('N#CC12C(=O)N3C(=NC(c4ccccc4)NC3c3ccccc3)C1(C#N)C(c1ccccc1)NC1=C2CCC1 (stereo not given)', '> 100 µM (inactive)'),
  ('CC(C)/C(=N\[N+](C)(C)C)c1ccccc1', '> 100 µM (inactive)'),
  ('Cc1ccc2c(c1)CC1(Cc3c(C)cccc3C1=O)C2=O (stereo not given)', '> 100 µM (inactive)'),
  ('CCCCCCOP(=O)(OCCCCCC)C(NC(=O)OCC)(C(F)(F)F)C(F)(F)F', '28.8 µM (inactive)'),
  ('CCOC(=N)n1c(=O)n(C2=NCCN2)c2ccccc21', '> 100 µM (inactive)'),
  ('COC1(OC)C(N(C)C)=C(Cl)C(=O)/C1=C/C=O', '92 µM (inactive)'),
  ('Cc1ccc(N2CN3OC(=O)N(c4ccccc4)[C@@]3(c3ccccc3)C2)cc1', '39.4 µM (inactive)'),
  ('COc1cc(C=C2C(C)=NN(c3cccc(Cl)c3)C23C(Cl)C(=O)N3c2nc3ccccc3s2)ccc1O (stereo not given)', '19.2 µM (inactive)'),
  ('CN1CCN(c2nc3c(c(=O)n(C)c(=O)n3C)n2C)CC1', '> 100 µM (inactive)'),
  ('CC(Cc1ccc2c(c1)OCO2)N(C)C(=O)C1=CCN(C)CC1 (stereo not given)', '> 100 µM (inactive)'),
  ('CCOC(=O)N/N=C(/N)Cc1ccccc1', '> 100 µM (inactive)');

###

Tested on: Hs-578T
Test: NCI tumour cell line growth inhibition, 48 h
Calls of active or inactive are those of the source. Rule as the data show it: active = GI50 up to about 1.1 µM and inactive = higher.
Classes used: active, inactive

INSERT INTO measurements (molecule, category_label) VALUES
  ('NCC(O)CN.Oc1c(Cl)c(Cl)c(Cl)c(Cl)c1Cl', 'inactive'),
  ('CN(C)c1ccc(C2SCC(=O)N2c2nc3cc4sc(N5C(=O)CSC5c5ccc(N(C)C)cc5)nc4cc3s2)cc1 (stereo not drawn)', 'inactive'),
  ('C=C1C(=O)OC2C1CCC(=C)C1CC(O)C(=C)C12 (stereo not drawn)', 'inactive'),
  ('COc1cc([C@@H]2c3cc4c(cc3[C@@H](Nc3ccc(Cl)cc3C(=O)c3ccccc3Cl)[C@H]3COC(=O)[C@H]23)OCO4)cc(OC)c1OC', 'active'),
  ('BC(=O)NC(CC(C)C)C(=O)NC1c2ccsc2C(=O)C1O.CN(C)C (stereo not drawn)', 'inactive'),
  ('CN1CCN(c2nc3c(c(=O)n(C)c(=O)n3C)n2C)CC1', 'inactive'),
  ('CC#CCCCC1(C)CCNC1=S (stereo not drawn)', 'inactive'),
  ('COc1cc(/N=C\N(C)C)c2ncccc2c1', 'inactive'),
  ('O=C1NC(N2CCCC(CO)C2)=N/C1=C\c1ccc(O)cc1 (stereo not drawn)', 'inactive'),
  ('Cc1c(S(=O)(=O)/N=C(\NN)Nc2ccc(Cl)cc2)sc2ccc(Cl)cc12', 'inactive'),
  ('COc1nc(N=P(c2ccccc2)(c2ccccc2)c2ccccc2)cc(=O)[nH]1', 'inactive'),
  ('COc1ccc(CCn2ccc(C)n2)c(OC)c1', 'inactive'),
  ('NCCCNCCS', 'inactive'),
  ('CC1(C)CC(C#Cc2ccccc2)CC(C)(C)N1O', 'inactive'),
  ('CC1=CCC2CC1C(C(=O)c1c[nH]c3ccccc13)=NC2(C)C (stereo not drawn)', 'inactive'),
  ('CC1(C)N=C(N)N=C(N)N1c1ccc(CCCCc2ccc(S(=O)(=O)F)cc2Cl)c(Cl)c1', 'inactive'),
  ('COc1cc(C[C@H]2C(=O)OC[C@@H]2Cc2ccc(OC)c(OC)c2)cc(OC)c1', 'inactive'),
  ('Cc1cccc(NC(=S)N/N=C2\C(=O)Nc3ccccc32)c1', 'inactive'),
  ('CC(C)=CCc1c(O)c(CC=C(C)C)c2oc(-c3ccc(O)cc3O)c(CC=C(C)C)c(=O)c2c1O', 'inactive'),
  ('C[n+]1c(-c2ccc(/C=N/NC(=O)c3ccc(C(=O)N/N=C/c4ccc(-c5cn6ccccc6[n+]5C)cc4)cc3)cc2)cn2ccccc21', 'inactive'),
  ('Cn1nc(-c2ccccc2)nc1[N+](=O)[O-]', 'inactive'),
  ('CC1CC/C(=C\c2ccc(F)cc2)C2=C1C(c1ccc(F)cc1)n1c(s/c(=C\c3ccc(Cl)cc3)c1=O)=N2 (stereo not drawn)', 'inactive'),
  ('CN(C)c1ccc(/C=C/c2ccnc3ccc4ccccc4c23)cc1', 'inactive');
